Property: TGI; scope: individual compounds
System: OVCAR-5 ovarian
Experiment: NCI tumour cell line growth inhibition, 48 h
assay-readout: TGI

> print(dat)
                                    compound  measured.target     result
 1              O=C(CCBr)N1CCN(C(=O)CCBr)CC1  OVCAR-5 ovarian     189 µM
 2  [O-]/N=[N+](/[O-])C1CCCCC1=[N+]1CCOCC1 (configuration not stated)  OVCAR-5 ovarian   > 100 µM
 3  COc1ccc(-c2cc(/C=C3\C(=O)Nc4cc(Cl)ccc43)[nH]n2)cc1  OVCAR-5 ovarian   > 100 µM
 4  COc1ccc(Nc2nc3cc(C(F)(F)F)ccc3nc2-c2ccccc2)cc1OC  OVCAR-5 ovarian   > 100 µM
 5  COC(=O)C1=COC2OC3C(C(C)O)C(=O)OC34C=CC1C24 (configuration not stated)  OVCAR-5 ovarian   > 100 µM
 6  CN(C)C(=O)Oc1c(Br)cc(Br)cc1C(=O)OCc1ccccc1  OVCAR-5 ovarian   > 100 µM
 7  Clc1ccc(CCNC2(c3cc4ccccc4s3)CCCCC2)cc1Cl  OVCAR-5 ovarian    68.1 µM
 8  CN1CC=C(c2cc(NC(=O)Nc3ccc(Oc4ccnc(NC(=O)C5CC5)c4)c(F)c3)cc(C(F)(F)F)c2)CC1  OVCAR-5 ovarian    2.44 µM
 9  COC(=O)[C@H](CC(C)C)NC(=O)[C@H](Cc1ccccc1)N1CC2C=CC1C2 (some centres not stated)  OVCAR-5 ovarian   > 100 µM
10  CC(=O)C1=C(C)O[C@@H]2O[C@H](COCc3ccccc3)[C@@H](OCc3ccccc3)[C@H](O)[C@@H]2S1  OVCAR-5 ovarian    84.1 µM
11            O=c1cc(-c2ccccc2)[nH]c2ncccc12  OVCAR-5 ovarian   > 100 µM
12  CCc1ccccc1NC(=O)C(=O)C(C#N)c1ccccc1Cl (configuration not stated)  OVCAR-5 ovarian   > 100 µM
13                    CCc1cc(C)cc2[n+]1CC=C2  OVCAR-5 ovarian    56.6 µM
14  CN(C)Cc1c(O)ccc2c1c1c(n2C)C(=O)c2ccccc2C1=O  OVCAR-5 ovarian    74.4 µM
15  CS(=O)(=O)N1CCC(n2c(=O)c(Oc3ccc(F)cc3F)cc3cnc(NC4CCOCC4)nc32)CC1  OVCAR-5 ovarian    > 25 µM
16          CC1(C)OC[C@H](C(=N)OCc2ccccc2)O1  OVCAR-5 ovarian   > 100 µM
17  CC1CCCC(C(=O)CC2CC(=O)NC(=O)C2)C1=O (configuration not stated)  OVCAR-5 ovarian   > 100 µM
18  COC1/C=C/C=C(/C)Cc2cc(O)c(Cl)c(c2)N(C)C(=O)CC(OC(=O)C(C)C)C2(C)OC2C(C)C2CC1(O)NC(=O)O2 (configuration not stated)  OVCAR-5 ovarian  > 71.2 µM
19  CC1(C)NC(=O)N(CCCCCCN2C(=O)NC(C)(C)C2=O)C1=O  OVCAR-5 ovarian   > 100 µM
20  Cc1cc(Cl)nc2ccc(Cc3ccc4nc(Cl)cc(C)c4c3)cc12  OVCAR-5 ovarian   > 100 µM
21                       Fc1cc(F)c(F)c(S)c1F  OVCAR-5 ovarian   > 100 µM
22  CC(=O)OCC12CN(C#N)C3C4COC(CC41)C1(C(=O)N(C)c4ccccc41)C32 (configuration not stated)  OVCAR-5 ovarian   > 100 µM

---

System: KM20L2 colon
Assay: NCI tumour cell line growth inhibition, 48 h
assay-readout: TGI

> print(dat)
                                    compound  measured.target    result
 1  CC1CCC2C(C)C(=O)OC3OC4(C)CCC1C32OO4 (stereo not given)     KM20L2 colon  > 100 µM
 2  COc1cccc2c1OC1Sc3ccccc3-c3nn(-c4ccccc4)c-2c31 (stereo not given)     KM20L2 colon  > 100 µM
 3  O=C(CCC(=O)Nc1ccc(Cl)c(Cl)c1)CC(=O)c1ccc2ccccc2c1     KM20L2 colon  > 100 µM
 4  CN(C)C(=O)Oc1c(Br)cc(Br)cc1C(=O)OCc1ccccc1     KM20L2 colon   57.7 µM
 5                CCCCCCSc1nc(N)nc2nc[nH]c12     KM20L2 colon  > 100 µM
 6  CC[C@@]1(O)C[C@H](OC2CC(N(C)C)C(O)C(C)O2)c2c(cc3c(c2O)C(=O)c2c(O)ccc(O)c2C3=O)[C@H]1C(=O)OC (stereo not given in full)     KM20L2 colon  0.969 µM
 7  O=C(Cc1nc2ccc(C(=O)c3ccccc3)cc2[nH]c1=O)C(=O)Nc1nc2ccccc2[nH]1     KM20L2 colon  > 100 µM
 8  O=[N+]([O-])c1cc(-c2nc(=S)[nH][nH]2)ccc1O     KM20L2 colon  > 100 µM
 9  CC1=NN(C(=O)Cc2ccccc2)C(=O)/C1=C\c1ccc([N+](=O)[O-])cc1     KM20L2 colon  > 100 µM
10  CC(=O)c1ccccc1NC(=O)C(=O)C(C(=O)c1ccc2ccccc2c1)C1OC(=O)c2ccccc21 (stereo not given)     KM20L2 colon     94 µM

---

We begin with a simple list: items and their reported TGI.
Test system: OVCAR-3 ovarian
Experiment: NCI tumour cell line growth inhibition, 48 h
assay-readout: TGI (µM)

> print(dat)
                                   molecule  measured.target  value.prefix  readout.number
1  O=C(Cn1c(C(=O)c2ccc(Cl)cc2)nc(-c2ccc(Cl)cc2)c1-c1ccc(Cl)cc1)c1ccccc1  OVCAR-3 ovarian             >             100
2  CC1CCC2C(C)C(=O)OC3OC4(C)CCC1C32OO4 (stereo not given)  OVCAR-3 ovarian             >             100
3  CCOC(=O)c1[nH]cc(C)c1-c1cccn1-c1ccc(Cl)cc1[N+](=O)[O-]  OVCAR-3 ovarian             =            29.5
4  CN1CCN(C(=O)[C@@]2(C)CC[C@]3(C)CC[C@]4(C)C(=CC[C@@H]5[C@@]6(C)CCC(=O)NC(C)(C)[C@@H]6CC[C@]54C)[C@@H]3C2)CC1  OVCAR-3 ovarian             =             4.7
5              Nc1nc(Cl)cc(OCC2(CO)CCCC2)n1  OVCAR-3 ovarian             >             100

---

Quick reference: TGI of the listed items.
Tested on: SF-539 CNS
Assay: NCI tumour cell line growth inhibition, 48 h
assay-readout: TGI

> print(dat)
                                    compound    result
 1  CCOC(=O)c1[nH]cc(C)c1-c1cccn1-c1ccc(Cl)cc1[N+](=O)[O-]   43.9 µM
 2  COC(=O)[C@H]1COC(=S)N1C(=O)[C@@H](C)[C@H](O)C(C)C  > 100 µM
 3                  Oc1cc(N2CC2)c(O)cc1N1CC1   2.38 µM
 4  CS(=O)(=O)N1CCC(n2c(=O)c(Oc3ccc(F)cc3F)cc3cnc(NC4CCOCC4)nc32)CC1   > 25 µM
 5  O=C1C(=c2ccc(=C3C(=O)c4ccc([N+](=O)[O-])cc4[N+]3=O)cc2)N([O-])c2cc([N+](=O)[O-])ccc21  > 100 µM
 6  Cc1[nH]c(=O)nc(N/N=C/c2ccc(O)cc2)c1C(=O)Nc1ccc(O)cc1  > 100 µM
 7          COc1ccc(-c2coc3cc(O)ccc3c2=O)cc1  > 100 µM
 8  CN1C(=O)CC2(C)c3cc(O)cc(Br)c3N(C)C12 (stereo not given)  > 100 µM
 9                   O=Cc1cccc2ccc3ccccc3c12     23 µM
10  COc1ccc(Nc2nc3cc(C(F)(F)F)ccc3nc2-c2ccccc2)cc1OC  > 100 µM

---

// GI50 lookup, one value per entry
Test system: SF-268 CNS
Assay: NCI tumour cell line growth inhibition, 48 h
assay-readout: GI50

> print(dat)
                                    compound    result
 1  COc1ccc2c(c1)N(Cc1ccc(Cl)cc1)CCC2N1CCCC1=O (stereo not given)   5.41 µM
 2  O=[N+]([O-])c1ccc(/C=C/c2nc3ccc(Cl)cc3[nH]2)cc1  > 100 µM
 3  Cn1cc(C2=C(c3c4n(c5ccccc35)CCNC4)C(=O)NC2=O)c2ccccc21   10.5 µM
 4  O=C(c1ccccc1)C(Cl)C(Cl)c1ccccc1 (stereo not given)   4.71 µM
 5  CCn1c(-c2nonc2N)nc2c(C#CC(C)(C)O)ncc(OC3CCNCC3)c21   16.6 µM
 6  COc1cc(-c2cc3ncccc3c3nc(OCCN(C)C)c4cccnc4c23)cc(OC)c1OC  0.637 µM
 7     COc1cc(OC)cc(Oc2cnc3cc(N)cc(N)c3n2)c1   15.5 µM
 8  CN(C)C1CCN(Cc2ccc(NC(=O)c3cncc(C#Cc4cnc(N)c5ncccc45)c3)cc2C(F)(F)F)CC1   1.68 µM
 9  O=C(Cn1c(C(=O)c2ccc(Cl)cc2)nc(-c2ccc(Cl)cc2)c1-c1ccc(Cl)cc1)c1ccccc1  > 100 µM
10  O=C1Nc2ccccc2/C1=C\c1c(-c2ccccc2)nc2sccn12   5.86 µM
